Source of measurements: patent US10829484B2

Target: BaF3-FLT3-ITD-D835V (Homo sapiens, UniProt P36888, INS600HVDFREYEYD/D835V, cells depend on it)
Test: CTB viability assay CS0048, BaF3-FLT3-ITD-D835V
Format: cell-based, murine
Conditions: Table 4, compounds from WO 2011/022473; CellTiter Blue viability, 72 hours; read-out: Cell Assay: CS0048: BaF3-FLT3-ITD-D835V CTB: IC50
quantity.measured: GI50 (nM)
// units = nM; emit number, no label

Reference set (4 entries):
[Q] # return recorded GI50 for input CC(C)(C)c1cc(NC(=O)Nc2ccc(-c3cnc(NC4CCOCC4)nc3)cn2)no1 [reference compound]
[A] 673

[Q] Hello, please tell me recorded GI50 for this one: CCNc1ccc(-c2ccc(CC(=O)Nc3cc(C(C)(C)C)on3)cc2)cn1 [reference compound]
[A] 94.2

[Q] Please give the documented GI50 of CC(C)(c1cc(NC(=O)Cc2ccc(-c3ccc(NCCN4CCOCC4)nc3)cc2)no1)C(F)(F)F [reference compound]
[A] 145

[Q] Using the record for CNc1ccc(-c2ccc(CC(=O)Nc3cc(C(C)(C)C)on3)cc2)cn1 [reference compound] , state its measured GI50.
[A] 92

Could you now consider this next compound?
[Q] Tell us which GI50 value is on record for CC(C)(C)c1cc(NC(=O)Nc2ccc(-c3cnc(NC4CC4)nc3)cn2)no1 [reference compound]
[A] 585
